System: Bel-7402 (human hepatoma cells)
Assay: MTT cancer cell growth inhibition
Format: cell-based
Conditions: Homo sapiens, Bel-7402, 72 h, MTT, 72 hours incubation, Bel-7402 cells; read-out: GI50 Bel-7402
MEASUREMENT_TYPE: GI50 (nM)

>>> df
                            chemical_string   u  observed_measurement
0  C/C=C1\NC(=O)c2ccc(SC)c(n2)CNC(=O)C[C@@H](/C=C/CCSC(=O)CCCCCCC)OC(=O)[C@H](Cc2ccccc2)NC1=O  nM                    51
1  C/C=C1\NC(=O)c2ccc(F)c(n2)CNC(=O)C[C@@H](/C=C/CCSC(=O)CCCCCC)OC(=O)[C@H](C(C)C)NC1=O  nM                    51
2  C/C=C1\NC(=O)c2nc(ccc2SC)CCNC(=O)C[C@@H](/C=C/CCSC(C)=O)OC(=O)[C@H](C(C)C)NC1=O  nM                    32

---

Biological target: HDAC1 (Homo sapiens)
Sequence (Q13547 whole entry, species assumed): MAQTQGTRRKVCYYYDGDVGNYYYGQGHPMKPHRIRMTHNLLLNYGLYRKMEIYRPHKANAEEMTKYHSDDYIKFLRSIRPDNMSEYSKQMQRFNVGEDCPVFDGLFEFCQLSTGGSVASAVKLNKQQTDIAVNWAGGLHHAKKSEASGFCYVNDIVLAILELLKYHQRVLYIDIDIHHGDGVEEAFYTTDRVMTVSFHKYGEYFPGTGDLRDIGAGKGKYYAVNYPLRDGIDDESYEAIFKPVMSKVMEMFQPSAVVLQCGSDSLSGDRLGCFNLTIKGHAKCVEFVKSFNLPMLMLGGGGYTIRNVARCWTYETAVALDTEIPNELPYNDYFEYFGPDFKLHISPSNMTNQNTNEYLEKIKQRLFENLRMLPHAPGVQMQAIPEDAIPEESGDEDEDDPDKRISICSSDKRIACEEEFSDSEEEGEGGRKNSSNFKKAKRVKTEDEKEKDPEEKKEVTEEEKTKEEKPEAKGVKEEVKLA
Test: HDAC biochemical activity measurement (fluorescent substrate deacetylation);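 as to IC50 HDAC1: fluorogenic acetyl-lysine substrate (20 µM) deacetylated by HDAC1, then developer releases fluorophore read at 360 nm excitation and 460 nm emission, inhibitor incubated 30 min at 37 °C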
Details: HDAC1; 37° C. 30 minutes; read-out: IC50 HDAC1
pIC50: −log10 of the molar value.
# Lookup of reported pIC50 keyed by entry
MEASUREMENT_TYPE: pIC50

                            chemical_string  measurement_type  observed_measurement
0  C/C=C1\NC(=O)c2cccc(n2)NC(=O)C[C@@H](/C=C/CCSC(C)=O)OC(=O)[C@H](C(C)C)NC1=O             pIC50                  7.03
1  C/C=C1\NC(=O)c2nc(ccc2F)CNC(=O)C[C@@H](/C=C/CCSC(=O)CCCCCCC)OC(=O)[C@H](CC)NC1=O             pIC50                  7.13
2  C=C1NC(=O)c2cc(SC)cc(n2)CNC(=O)C[C@@H](/C=C/CCSC(C)=O)OC(=O)[C@H](C(C)C)NC1=O             pIC50                  7.04
3  C/C=C1\NC(=O)c2cccc(n2)CNC(=O)C[C@@H](/C=C/CCSC(=O)CCCCCCC)OC(=O)[C@H](Cc2cccc3ccccc23)NC1=O             pIC50                  7.11

---

Tested on: KBM-5 (human chronic myelogenous leukemia)
Experiment: MTT cancer cell growth inhibition
Assay type: cell-based
Settings: Homo sapiens, KBM5, 72 h, MTT, 72 hours incubation, KBM-5 cells; read-out: GI50 KBM-5
Threshold 0.05 µM: GI50 strictly smaller gives satisfied, otherwise not satisfied.

>>> print(df.to_string())
                             chemical_string    label_class
 0  C/C=C1\NC(=O)c2cc(SC)cc(n2)CNC(=O)C[C@@H](/C=C/CCSC(C)=O)OC(=O)[C@H](Cc2ccc(O)cc2)NC1=O      satisfied
 1  C/C=C1\NC(=O)c2cc(F)cc(n2)CNC(=O)C[C@@H](/C=C/CCS)OC(=O)[C@H](C)NC1=O      satisfied
 2  C/C=C1\NC(=O)c2nc(ccc2SC)CNC(=O)C[C@@H](/C=C/CCSC(=O)CCCCC)OC(=O)[C@H](C(C)C)NC1=O      satisfied
 3  C/C=C1\NC(=O)c2nc(ccc2F)CNC(=O)C[C@@H](/C=C/CCSC(C)=O)OC(=O)[C@@H](C)NC1=O      satisfied
 4  C/C=C1\NC(=O)c2cc(F)cc(n2)CNC(=O)C[C@@H](/C=C/CCS)OC(=O)[C@H](Cc2cccc3ccccc23)NC1=O  not satisfied
 5  CC(=O)SCC/C=C/[C@@H]1CC(=O)NCc2cc(F)cc(n2)C(=O)NC(=C(C)C)C(=O)N[C@@H](C(C)C)C(=O)O1  not satisfied
 6  C/C=C1\NC(=O)c2nc(ccc2F)CNC(=O)C[C@@H](/C=C/CCS)OC(=O)[C@H](C(C)C)NC1=O  not satisfied
 7  C/C=C1\NC(=O)c2ccc(F)c(n2)CNC(=O)C[C@@H](/C=C/CCSC(C)=O)OC(=O)[C@H](C)NC1=O  not satisfied
 8  C/C=C1\NC(=O)c2ccc(SC)c(n2)CNC(=O)C[C@@H](/C=C/CCSC(=O)CCCCCCC)OC(=O)[C@H](C)NC1=O      satisfied
 9  C/C=C1\NC(=O)c2cc(F)cc(n2)CNC(=O)C[C@@H](/C=C/CCS)OC(=O)[C@H](CCCCN)NC1=O      satisfied
10  CC(C)=C1NC(=O)c2ccc(F)c(n2)CNC(=O)C[C@@H](/C=C/CCS)OC(=O)[C@H](C(C)C)NC1=O      satisfied
11  C/C=C1\NC(=O)c2cccc(n2)CNC(=O)C[C@@H](/C=C/CCSC(=O)CC)OC(=O)[C@H](C(C)C)NC1=O  not satisfied
12  C/C=C1\NC(=O)c2nc(ccc2SC)CNC(=O)C[C@@H](/C=C/CCSC(=O)CC)OC(=O)[C@H](C(C)C)NC1=O      satisfied
13  C/C=C1\NC(=O)c2nccc(n2)CNC(=O)C[C@@H](/C=C/CCS)OC(=O)[C@H](C(C)C)NC1=O      satisfied
14  C=C1NC(=O)c2cc(SC)cc(n2)CNC(=O)C[C@@H](/C=C/CCSC(C)=O)OC(=O)[C@H](C)NC1=O      satisfied
15  C/C=C1\NC(=O)c2ncc(SC)c(n2)CNC(=O)C[C@@H](/C=C/CCSC(C)=O)OC(=O)[C@H](C)NC1=O      satisfied
16  C/C=C1\NC(=O)c2ccc(SC)c(n2)CNC(=O)C[C@@H](/C=C/CCS)OC(=O)[C@H](C(C)C)NC1=O  not satisfied
17  C/C=C1\NC(=O)c2nc(ccc2SC)CNC(=O)C[C@@H](/C=C/CCSC(C)=O)OC(=O)[C@H](Cc2ccccc2)NC1=O      satisfied
18  C/C=C1\NC(=O)c2cc(SC)cc(n2)CNC(=O)C[C@@H](/C=C/CCSC(C)=O)OC(=O)[C@H](CCCCN)NC1=O      satisfied
19  C/C=C1\NC(=O)c2nc(ccc2F)CNC(=O)C[C@@H](/C=C/CCSC(=O)CCCCC)OC(=O)[C@H](C(C)C)NC1=O  not satisfied
20  C/C=C1\NC(=O)c2cc(SCC)cc(n2)CNC(=O)C[C@@H](/C=C/CCSC(=O)CCCCCC)OC(=O)[C@H](C(C)C)NC1=O  not satisfied

---

Biological target: HDAC3 (Homo sapiens)
Sequence (O15379 whole entry, species assumed): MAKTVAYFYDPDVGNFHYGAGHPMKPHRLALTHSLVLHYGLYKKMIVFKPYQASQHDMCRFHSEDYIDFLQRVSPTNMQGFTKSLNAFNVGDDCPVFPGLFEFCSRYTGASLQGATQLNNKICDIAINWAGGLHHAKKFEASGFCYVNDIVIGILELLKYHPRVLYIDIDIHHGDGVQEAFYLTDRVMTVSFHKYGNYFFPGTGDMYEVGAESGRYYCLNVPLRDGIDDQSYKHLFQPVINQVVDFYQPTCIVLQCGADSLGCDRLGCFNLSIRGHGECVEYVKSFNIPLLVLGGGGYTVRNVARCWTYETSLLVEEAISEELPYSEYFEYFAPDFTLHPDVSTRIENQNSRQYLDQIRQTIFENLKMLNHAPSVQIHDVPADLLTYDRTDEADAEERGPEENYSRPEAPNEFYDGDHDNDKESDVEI
Sequence (Q9Y618 395-489 partner limits assumed, species assumed): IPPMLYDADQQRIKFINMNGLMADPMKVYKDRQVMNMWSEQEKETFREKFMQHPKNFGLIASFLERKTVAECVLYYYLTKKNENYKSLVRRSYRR
Assay: HDAC biochemical activity measurement (fluorescent substrate deacetylation)
pIC50: −log10 of the molar value.
The molecules listed here are annotated with their pIC50.
MEASUREMENT_TYPE: pIC50

>>> print(df.to_string())
                            chemical_string  measurement_type  observed_measurement
0  C/C=C1\NC(=O)c2cccc(n2)CNC(=O)C[C@@H](/C=C/CCS)OC(=O)[C@@H](C)NC1=O             pIC50                  7.59
1  C/C=C1\NC(=O)c2ccc(SC)c(n2)CNC(=O)C[C@@H](/C=C/CCSC(=O)CCCCCCC)OC(=O)[C@H](Cc2ccccc2)NC1=O             pIC50                  7.21
2  C/C=C1\NC(=O)c2cc(SC)cc(n2)CNC(=O)C[C@@H](/C=C/CCSC(C)=O)OC(=O)[C@H](CC)NC1=O             pIC50                  7.46

---

Tested on: MCF-7 (human breast cancer cells)
Experiment: MTT cancer cell growth inhibition
Format: cell-based
Conditions: Homo sapiens, MCF7, 72 h, MCF-7 cells, 72 hours incubation, read-out: GI50 MCF
Recorded log10(GI50), one value per entry.
MEASUREMENT_TYPE: log10(GI50) (log10 of the value in nM)

                                   compound                    target_of_assay  measurement_type  observed_measurement
0  C/C=C1\NC(=O)c2ccc(SC)c(n2)CNC(=O)C[C@@H](/C=C/CCSC(=O)CC)OC(=O)[C@H](C(C)C)NC1=O [Compound 164]  MCF-7 (human breast cancer cells)       log10(GI50)                  1.48
1  C/C=C1\NC(=O)c2cccc(n2)CNC(=O)C[C@@H](/C=C/CCSC(=O)CCCCCCC)OC(=O)[C@H](CC(C)C)NC1=O [Compound 241]  MCF-7 (human breast cancer cells)       log10(GI50)                  1.30
2  C/C=C1\NC(=O)c2nc(ccc2SC)CNC(=O)C[C@@H](/C=C/CCSC=O)OC(=O)[C@H](C(C)C)NC1=O [Compound 168]  MCF-7 (human breast cancer cells)       log10(GI50)                  1.78
3  C=C1NC(=O)c2cccc(n2)CNC(=O)C[C@@H](/C=C/CCSC(=O)CCCCCCC)OC(=O)[C@H](C(C)C)NC1=O [Compound 244]  MCF-7 (human breast cancer cells)       log10(GI50)                  2.52
4  C/C=C1\NC(=O)c2ccc(SCC)c(n2)CNC(=O)C[C@@H](/C=C/CCSC(=O)CCCCCCC)OC(=O)[C@H](C(C)C)NC1=O [Compound 249]  MCF-7 (human breast cancer cells)       log10(GI50)                  1.85
5  C/C=C1\NC(=O)c2cc(SC)cc(n2)CNC(=O)C[C@@H](/C=C/CCS)OC(=O)[C@H](C(C)C)NC1=O [Compound 227]  MCF-7 (human breast cancer cells)       log10(GI50)                  1.30
